target: T1, human EGFR on cells (Her-14 mouse fibroblasts expressing human EGFR; A431 cells) (human, UniProt P00533 25-1210); experiment: phage ELISA on Her-14 cells (mouse fibroblasts expressing human EGFR) against parental 3T3 cells, about 10^9 phage particles, anti-M13 gpVIII-HRP, OD 405nm
T1 construct: whole, on cells; also called EGF receptor
QUANTITY_NAME: binding result

Worked examples follow.
>>> observed("EGFR-B11 (VHH) VHH: QVQLQDSGGGLVQAGGSLRLSCAASRFSSAQYAIGWFRQAPGKEREGVSYITFSGGPTGYADSVKGRFTVSRDNAKNTVYLQMNSLKPEDTAVYYCAARPYTRPGSMWVSSLYDNWGQGTQVTVSS")
"binds"
>>> observed("EGFR-4.21 (VHH) VHH: EVQLVESGGGLVQAGGSLRLSCAVSGRTFSSMGWFRQAPGKEREFVATINLSGDRTDYADSVKGRFTISRDNPKNTVYLQMDSLEPEDSAVYYCAGTSLYPSNLRYYTLPGTYADWGQGTQVTVSS")
"binds"
>>> observed("EGFR-F11 (VHH) VHH: QVQLQESGGRLVQAGGSLRLSCAASEHTFRGYAIGWFRQAPGKEREFVSSITYDGTLTNYADSVTGRFTISRDNAKNTVYLQMNSLKPEDTAVYVCAAGYSYRYTTLNQYDSWGQGTQVTVSS")
"binds"
>>> observed("EGFR-1.38 (VHH) VHH: QVQLQDSGGGLVQAGDSLRLSCAASGRSFGGYAMGWFRQAPGKEREFVAAISWSGGSTYYADSLKGRFTISRDNAKNTVYLQMNSLKPEDTALYYCAAGLRPSPNYNHERSYDYWGQGTQVTVSS")
"binds"

Here is another binder to look at.
-- ask Entry under review: EGFR-IIIa5 (VHH) VHH: EVQLVESGGGLVQAGGSLRLSCTASGRTFSSYAMGWFRQTPGKEREFVAAITSSGGSTYYADSVKGRFTISRDNAKSTMYLQMDSLMLDDTSVYYCAADSSRPQYSDSALRRILSLSNSYPYWGQGTQVTVSS . Reported binding result?
-- reply binds
